Conditions: in n-propanol, 293.15 K
Reported Property: solubility (mole fraction)
// no unit string in output, number only

Lookup: // query solubility (mole fraction) value for entry `CC(=O)N[C@@H](C)C(=O)O`
Found: 0.104

###

Settings: in isopentanol, 308.15 K
Reported Property: solubility (mole fraction)
// no unit string in output, number only

Lookup: // query solubility (mole fraction) value for entry `CC(=O)N[C@@H](C)C(=O)O`
Found: 0.0949

###

Details: in 2-butanone, 303.15 K
Reported Property: solubility (mole fraction)
// no unit string in output, number only

Lookup: // query solubility (mole fraction) value for entry `CC(=O)N[C@@H](C)C(=O)O`
Found: 0.0215
